Test system: α1bAR, β2AR, AT1AR, DOR, and V2R
assay.name: Multiplex Receptor Assay With Five GPCRs (pooled cell lines, arrestin-GFP Fgrains)
Assay type: cell-based, human
run.conditions: pool of five U2OS cell lines expressing α1bAR, β2AR, AT1AR, DOR, V2R
Description: The assays were carried out using various “double stable” human osteosarcoma cell (U2OS) lines. […] Plates were imaged for response determination on an In Cell Analyzer 3000, Gen. […] Pit or vesicle responses were quantitated using the Granularity Module of the Raven Software. That is, the In Cell Analyzer 3000 was used to quantitate the localization of the arrestin-GFP conjugate for the cells in each well. […]
experimental.endpoint: pEC50
One number for each entry, as −log10 of the molar value.

Ask: Give pEC50 (α1bAR, β2AR, AT1AR, DOR, and V2R) of the following compound: NC[C@H](O)c1ccc(O)c(O)c1 [NE, norepinephrine]
Result: 6.52
